Tested on: A549
protocol_description: cells
recorded_conditions: Homo sapiens, A549, 48 h
pIC50: −log10 of the molar value.
readout_type: pIC50

C#Cc1cccc(Nc2ncnc3cc(OCCOC)c(OCCOC)cc23)c1	5.11

====

System: A549
protocol_description: cells
recorded_conditions: Homo sapiens, A549, 48 h
Description: Antiproliferative activity against human A549 cells assessed as inhibition of cell growth incubated for 48 hrs in presence of evodiamine by MTT assay
pIC50: −log10 of the molar value.
readout_type: pIC50

C#Cc1cccc(Nc2ncnc3cc(OCCOC)c(OCCOC)cc23)c1	5.04

====

protocol_description: Antiproliferative activity against human PC9 Gefitinib-resistant (GR) cell assessed as inhibition of cell growth incubated for 48 hrs by MTT assay
Assay type: functional, cell-based
recorded_conditions: Gefitinib-resistant PC9, 48 h
pIC50: −log10 of the molar value.
Examples of compounds with documented pIC50 follow.
readout_type: pIC50

CN1c2ccccc2C(=O)N2CCc3c([nH]c4ccccc34)[C@H]21	4.95
COCCOc1cc2ncnc(Nc3cccc(-c4cn(CCOCCOCCOCCNC(=O)Cn5c(C)c(COC(=O)N(C)CCN(C)C(=O)Oc6ccc7[nH]c8c(c7c6)CCN6C(=O)c7ccccc7N(C)[C@H]86)c6c5C(=O)C=C(OC)C6=O)nn4)c3)c2cc1OCCOC	5.38
C#Cc1cccc(Nc2ncnc3cc(OCCOC)c(OCCOC)cc23)c1	5.16
CN1c2ccccc2C(=O)N2CCc3c([nH]c4ccc(O)cc34)[C@H]21	5.00

These entries and their values trace back to ChEMBL document CHEMBL5584219.
